TARGET: HNF4alpha2 (COS-7 nuclear extract) (Homo sapiens, UniProt P41235 1-474)
Sequence: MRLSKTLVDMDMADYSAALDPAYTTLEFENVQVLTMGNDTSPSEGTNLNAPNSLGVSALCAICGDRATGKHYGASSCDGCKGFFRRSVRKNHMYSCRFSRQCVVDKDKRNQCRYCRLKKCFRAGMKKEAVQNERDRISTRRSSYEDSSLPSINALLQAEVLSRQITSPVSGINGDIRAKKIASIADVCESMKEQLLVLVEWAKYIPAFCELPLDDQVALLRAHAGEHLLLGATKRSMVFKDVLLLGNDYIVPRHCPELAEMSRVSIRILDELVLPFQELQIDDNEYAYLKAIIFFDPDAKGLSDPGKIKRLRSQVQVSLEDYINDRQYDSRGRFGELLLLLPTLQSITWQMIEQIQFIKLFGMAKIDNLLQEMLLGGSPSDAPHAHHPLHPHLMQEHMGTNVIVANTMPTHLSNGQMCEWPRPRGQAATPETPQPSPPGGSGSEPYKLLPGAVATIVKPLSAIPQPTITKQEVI
ASSAY PROTOCOL: protein-binding microarray; COS-7 nuclear extract on double-stranded Agilent 4x180k PBM; binding buffer, salt, pH and temperature not given in the material; high values mean tight binding
CONDITION: chain copies: 2; label: 3' end of strand 1 on the slide; dsDNA, one strand shown
The full ranking holds about 18,000 sequences; the median of “log2 normalized intensity” is about 0.39, and the highest 2% start at about 6.6. The sample as a whole holds a higher share of the highest values than the screen did.
Outcome label depends on binding signal relative to 0.6 log2 normalized intensity: at/above gives criterion met, below gives criterion not met.

# count of solved cases: 3
SEQUENCE TEXT | ASSIGNED LABEL
CATCCTCATTGCCTCTGGGCTTTGATGGACGCCTAGGGAGATTAGAGTATCGGTCGA | criterion met
TTTCCCCGTCCCAAGCTGAGGTCTGGTGTCGCCTAGGGAGATTAGAGTATCGGTCGA | criterion met
TTACTCATGTGGTCCTAAGACTAACCTTTGGCCTAGGGAGATTAGAGTATCGGTCGA | criterion met

Ask: Evaluate CACCAGAAAAATGTACATGTGCAAAAGCACGCCTAGGGAGATTAGAGTATCGGTCGA : binding signal at minimum 0.6 log2 normalized intensity?
Result: criterion met

Ask: Evaluate GGAGATAACCCATCTGGGGAAAGTGCAAGGGCCTAGGGAGATTAGAGTATCGGTCGA : binding signal at minimum 0.6 log2 normalized intensity?
Result: criterion not met
